Experiment: in vitro
Conditions: dog, MDCK, pH 7.4
Description: Apparent permeability in dog MDCKII-LE cells at pH 7.4
Hi! Could you tag entries with Papp below 6 ×10⁻⁶ cm/s as Criterion met, and those at or above as Criterion not met? Much appreciated.

Exam item: A record lists O=C(c1ccccc1)c1ccc2n1CCC2C(=O)O (stereo unspecified) [KETOROLAC] . Is its Papp below 6 ×10⁻⁶ cm/s?
Marked response: Criterion not met

Exam item: A record lists O=C(O)[C@@H]1CCC[C@H]1C(=O)c1ccc(-c2ccc(Nc3nc4ccc(F)cc4s3)c(F)c2)cc1 . Is its Papp below 6 ×10⁻⁶ cm/s?
Marked response: Criterion met

Exam item: Consider the compound CC(C)(C)NC(=O)[C@H]1CC[C@H]2[C@@H]3CC=C4C=C(C(=O)O)CC[C@]4(C)[C@H]3CC[C@]12C [EPRISTERIDE] . Is its Papp strictly less than 6 ×10⁻⁶ cm/s?
Marked response: Criterion not met

Exam item: Is Papp strictly under 6 ×10⁻⁶ cm/s for the entry CC(C)c1nc(N(C)S(C)(=O)=O)nc(-c2ccc(F)cc2)c1/C=C/[C@@H](O)C[C@@H](O)CC(=O)O [ROSUVASTATIN] ?
Marked response: Criterion met

Exam item: Please indicate whether the reported Papp of Cn1cc(C(=O)O)c2ccc(N3CCC(OCc4c(-c5c(Cl)cccc5Cl)noc4C4CC4)CC3)cc21 [TERN-101] is strictly below 6 ×10⁻⁶ cm/s.
Marked response: Criterion not met

Continuing:
Exam item: API: query returns whether the compound falls strictly under 6 ×10⁻⁶ cm/s in Papp. Query: COc1ccc2c(c1)C(=O)N(CCc1ccc(S(=O)(=O)NC(=O)NC3CCCCC3)cc1)C(=O)C2(C)C [GLIQUIDONE]
Marked response: Criterion met

Exam item: State whether 6 ×10⁻⁶ cm/s exceeds Papp recorded for CCCCC1=NC2(CCCC2)C(=O)N1Cc1ccc(-c2ccccc2-c2nnn[nH]2)cc1 [IRBESARTAN] .
Marked response: Criterion not met

Exam item: Check if Papp falls below 6 ×10⁻⁶ cm/s for CC(C)Cc1ccc(C(C)C(=O)O)cc1 (stereo unspecified) [IBUPROFEN] .
Marked response: Criterion not met

Exam item: Dear reviewer, please state whether COc1ccccc1[C@H](Cn1c(=O)n(C(C)(C)C(=O)O)c(=O)c2c(C)c(-c3ncco3)sc21)OC1CCOCC1 [FIRSOCOSTAT] has Papp strictly beneath 6 ×10⁻⁶ cm/s.
Marked response: Criterion met

Exam item: Please determine if CC(C)n1c(/C=C/C(O)CC(O)CC(=O)O)c(-c2ccc(F)cc2)c2ccccc21 (stereo unspecified) [FLUVASTATIN] is below 6 ×10⁻⁶ cm/s in terms of Papp.
Marked response: Criterion not met

###

Experiment: in vitro
Settings: human, plasma
Description: Fraction unbound in human plasma
Consider the following compounds; for each one, report its fraction unbound.
Give bare numbers.

Check out these entries, answers already filled in.
Exam item: So what's the measured fraction unbound for this one? CCO[C@@H](Cc1ccc(OCCc2ccc(OS(C)(=O)=O)cc2)cc1)C(=O)O [TESAGLITAZAR]
Marked response: 0.00273

Exam item: Which fraction unbound reading was recorded for the compound CCCCC(=O)N(Cc1ccc(-c2ccccc2-c2nnn[nH]2)cc1)[C@H](C(=O)O)C(C)C ?
Marked response: 0.00415

Exam item: Give its fraction unbound value. Item: O=C(O)c1cccc(Cc2cc(Cl)ccc2OCc2ccc(Cl)cc2F)n1
Marked response: 0.0024

Exam item: Recorded fraction unbound for CN(C)C(=O)CCS[C@H](SCCC(=O)O)c1cccc(/C=C/c2ccc3ccc(Cl)cc3n2)c1 , please?
Marked response: 0.00142

Exam item: Please report the recorded fraction unbound for CCCCC1=NC2(CCCC2)C(=O)N1Cc1ccc(-c2ccccc2-c2nnn[nH]2)cc1 [IRBESARTAN] .
Marked response: 0.0155

Exam item: Dear colleague, I am looking for the recorded fraction unbound of the following compound: Cc1ccc(S(=O)(=O)NCCc2ccc(Oc3ccc(F)c(F)c3)cc2)cc1C(=O)O
Marked response: 0.00229

Exam item: Requested field: fraction unbound. Item: COc1ccc(Cl)cc1C(=O)NCCc1ccc(S(=O)(=O)NC(=O)NC2CCCCC2)cc1 [GLYBURIDE]
Marked response: 0.00217

Further cases:
Exam item: Using the record for O=C(O)Cc1ccccc1Nc1c(Cl)cccc1Cl [DICLOFENAC] , report its fraction unbound.
Marked response: 0.00376
